Entries and their Kd values follow.
# Study target: T1, recombinant cynomolgus monkey LIGHT, FLAG-tagged extracellular domain (cynomolgus (Macaca fascicularis), UniProt E9NVF7 59-240)
# T1 construct: extracellular domain; also called cynomolgus LIGHT; cyno LIGHT
# T1 sequence (E9NVF7 entry or part of it): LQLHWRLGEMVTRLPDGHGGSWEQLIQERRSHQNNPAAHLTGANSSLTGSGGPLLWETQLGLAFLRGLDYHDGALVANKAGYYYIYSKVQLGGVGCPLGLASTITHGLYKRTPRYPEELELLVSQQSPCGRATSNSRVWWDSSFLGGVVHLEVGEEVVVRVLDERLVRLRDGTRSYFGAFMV
# Method: SPR ProteOn, mAb captured on anti-mouse IgG, LIGHT 256 nM, 25 C, apparent affinity

- Binder: "13H04 (purified from hybridoma supernatant) (antibody, V domains shown, Murine constant / human variable chimeric IgG, lambda, Protein G purified from hybridoma supernatant) VH: QVQLVQSGAEVKKPGASVKVSCKASGYTFTSYGISWVRQAPGQGLEWMGWISAHNANTNYAQKLQGRVTMTTDTSTSTAYMELRSLRSDDTAMYYCARLYRNWFDPWGQGTLVTVSS VL: QSALTQPASVSGSPGQSITISCTGTSSDVGGYNYVSWYQQHPGKAPKLMIYDVSKRPSGVSNRFSGSKSGNTASLTISGLQAEDEADYYCCSYAGSSTLLFGGGTKLTVL"
  Kd / nM: 0.561
- Binder: "98C07 (purified from hybridoma supernatant, mouse IgG) (antibody, V domains shown, Murine C / human V chimeric IgG, kappa, purified from hybridoma supernatant) VH: QVQLVESGGGLVKPGGSLRLSCAASGFTFSDYYMSWIRQAPGKGLEWVSYISRSSFIYYSESVKGRFTISRDNAKNSLYLQMNSLRAEDTAVYYCARWELSPFDYWGQGTLVTVSS VL: DIQMTQSPSSLSASVGDRVTITCRASQGISNYLAWFQQKPGKAPKSLIYAASSLQSGVPSKFSGSGSGTDFTLTISSLQPEDFATYFCQQYNTYPFTFGPGTKVDIK"
  Kd / nM: 0.257
- Binder: "42A02 (purified from hybridoma supernatant) (antibody, V domains shown, Murine constant / human variable chimeric IgG, lambda, Protein G purified from hybridoma supernatant) VH: EVQLVESGGGLVQPGGSLRLSCAASGFTFSSYVMSWVRQAPGKGLEWVSVISSSGVTTYYADSVKGRFTISRDNSKNTLYLQMNSLRAEETAVYYCAKGNYGSGSFCDYWGQGTPVTVSS VL: SYVLTQPPSVSVAPGKTARITCGGNNIGSKSVHWYQQRPGQAPILVIYYDSDRPSGIPERFSGSNSGNSATLTISRVEAGDEADYHCQVWESSSDHPVFGGGTKLTVL"
  Kd / nM: 0.084

Reference for the values: patent US20170320956A1
